System: BT-474 cells
Test: Wound healing assay, BT-474
Type: cell-based
Settings: Homo sapiens; BT-474, wound healing; read-out: IC50, cell migration
Measured attribute: IC50 (µM)
Provide only the numeric value, understood in µM.

Name the reported IC50 value associated with the molecule O=C1C[C@@H](c2ccc(O[C@@H]3O[C@H](CO)[C@@H](O)[C@H](O)[C@H]3O)cc2)Oc2cc(O)ccc21 [Liquiritin]
10.4

====

Target: HER2 kinase (Homo sapiens, UniProt P04626)
Construct: HER2 purified kinase domain (amino acids 676–1255)
Sequence (P04626 676-1255): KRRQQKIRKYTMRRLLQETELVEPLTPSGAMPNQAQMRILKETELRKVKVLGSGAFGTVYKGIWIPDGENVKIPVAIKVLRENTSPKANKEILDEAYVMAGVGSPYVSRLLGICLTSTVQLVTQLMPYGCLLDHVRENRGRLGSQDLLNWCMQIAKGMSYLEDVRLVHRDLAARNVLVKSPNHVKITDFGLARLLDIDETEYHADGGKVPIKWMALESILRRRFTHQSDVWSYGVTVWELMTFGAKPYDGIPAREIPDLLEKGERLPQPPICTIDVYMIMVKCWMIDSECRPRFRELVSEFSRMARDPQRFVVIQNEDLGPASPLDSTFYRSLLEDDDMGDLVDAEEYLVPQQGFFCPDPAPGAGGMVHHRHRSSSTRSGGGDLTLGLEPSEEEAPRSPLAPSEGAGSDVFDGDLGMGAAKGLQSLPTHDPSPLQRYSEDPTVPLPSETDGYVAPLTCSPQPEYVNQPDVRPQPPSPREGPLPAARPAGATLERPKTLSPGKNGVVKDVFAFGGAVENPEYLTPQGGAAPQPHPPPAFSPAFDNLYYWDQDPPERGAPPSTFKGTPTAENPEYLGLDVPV
Assay: Z'-LYTE Kinase Assay-Tyr6 Peptide biochemical HER2 kinase assay
Settings: cell-free Z'-LYTE, Tyr6 peptide substrate; read-out: IC50, inhibition of ATP-induced HER2 phosphorylation
Measured attribute: IC50 (nM)
Provide only the numeric value, understood in nM.

Compound: C[C@@H]1O[C@@H](OC[C@H]2O[C@@H](Oc3cc(O)c4c(=O)cc(-c5ccc(O)cc5)oc4c3)[C@H](O[C@@H]3O[C@@H](C)[C@H](O)[C@@H](O)[C@H]3O)[C@@H](O)[C@@H]2O)[C@H](O)[C@H](O)[C@H]1O [Ligustroflavone]
IC50 / nM: 36.5

Name the reported IC50 value associated with the compound OC[C@H]1O[C@@H](Oc2cc(O)cc(/C=C/c3ccc(O[C@@H]4O[C@H](CO)[C@@H](O)[C@H](O)[C@H]4O)cc3O)c2)[C@H](O)[C@@H](O)[C@@H]1O [Mulberroside A]
37.7

Name the reported IC50 value associated with the compound O=C1C[C@@H](c2ccc(O[C@@H]3O[C@H](CO)[C@@H](O)[C@H](O)[C@H]3O)cc2)Oc2cc(O)ccc21 [Liquiritin]
18.5

Name the reported IC50 value associated with the compound O=c1cc(-c2ccccc2)oc2cc(O[C@@H]3O[C@H](CO[C@@H]4O[C@H](CO)[C@@H](O)[C@H](O)[C@H]4O)[C@@H](O)[C@H](O)[C@H]3O)c(O)c(O)c12 [Oroxin B]
12.1
